Consider the following compounds; for each one, report its inhibition.
assay: growth suppression of yeast trafficking mutant, preliminary HTS, modulators of trafficking downstream of Golgi apparatus project, 1536-format plate, OD 615 nm (AID 637); details: yeast transport mutant growth, absorbance 615 nm, 18 h; hits give high values
Give bare numbers, in %.

smiles_entry: C=CCn1c(=O)c2ccccc2n2c(SCC(=O)Nc3cc(C)on3)nnc12
inhibition, %: 1.75
--
smiles_entry: N#CCCNCC1(c2ccccc2)CCCC1
inhibition, %: -4.13
--
smiles_entry: COCCn1c(C)cc(C(=O)COC(=O)CCN2C(=O)c3ccccc3C2=O)c1C
inhibition, %: 0.65
--
smiles_entry: O=c1ccc(S(=O)(=O)N2CCC(Cc3ccccc3)CC2)c[nH]1
inhibition, %: -4.33

Req: For `COc1cc(OC)cc(C(=O)NCCN2CCOCC2)c1` , what is its reported inhibition?
Resp: -4.36

----------
assay: viability gain of MRP-1-high H69AR cells under doxorubicin, pilot screen, MRP-1 activator project, CellTiter-Glo, duplicate (AID 807); conditions: H69AR viability with doxorubicin, CellTiter-Glo luminescence; at 10 µM; hits give high values;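 note: compound pretreatment 18-22 h then 72 h combined with doxorubicin; 0% = doxorubicin alone and 100% = vehicle without doxorubicin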
Consider the following compounds; for each one, report its viability increase.
Give bare numbers, in %.

# count of solved cases: 2
compound: c1ccc(COc2ccc(Nc3ncnc4nc[nH]c34)cc2)cc1
reported_property: viability increase
assay_result: -0.86
--
compound: CCOc1ccc(NC(=O)C2CC(C)=C(C)CC2C(=O)O)cc1 (configuration not stated)
reported_property: viability increase
assay_result: -1.85

// batch mode: one viability increase value per listed entry
1. COc1ccc(C2C(C(=O)c3cccs3)=C(O)C(=O)N2c2nncs2)cc1 (configuration not stated)
2. CC(C)(Oc1ccc(-c2ccco2)cc1)C(=O)O
3. COc1cc(C2N(c3ccc(Cl)cc3)C(=O)C3CCCN32)cc(OC)c1OC (configuration not stated)
4. C=CCOC(=O)c1[nH]c2c(c1C)C(=O)CC(c1cc(OC)c(OC)c(OC)c1)C2 (configuration not stated)
5. Cc1ccccc1-c1ccc(Nc2ccc(C(=O)N3CCOCC3)cc2)nn1
6. COc1ccc(OC(C)C(=O)Nc2cccc(OC)c2)cc1 (configuration not stated)
7. CC(Oc1ccc(Cl)cc1Cl)C(=O)NCc1ccncc1 (configuration not stated)

Resp:
-1.95
-0.38
-2.09
-0.05
-2.49
-4.64
-4.17

// batch mode: one viability increase value per listed entry
1. O=C(CSc1nnc(Cn2c(=O)sc3ccccc32)n1CCc1ccccc1)N1CCCC1
2. O=C(NC1CCCCCC1)C1CCN(C(=O)Cc2ccccc2)CC1

Resp:
-3.62
-1.12

Req: For `COc1cccc(NC(=O)c2ccncc2)c1` , what is its reported viability increase?
Resp: -3.81

----------
experiment: SK-BR-3 cell growth inhibitors, pilot screen, 24 h, human (AID 572); conditions: SK-BR-3 viability, CellTiter-Glo luminescence, at 10 µM, hits give low values;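 note: compound exposure lasted between 18 and 24 h rather than exactly 24 h; 100% = carrier-treated control wells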
Consider the following compounds; for each one, report its viability.
One number for each entry, in %.

# count of solved cases: 5
compound: CC(=O)OCC(=O)[C@@]1(O)[C@H](C)C[C@H]2[C@@H]3CCC4=CC(=O)C=C[C@]4(C)[C@@]3(F)[C@@H](O)C[C@@]21C
viability, %: 118

compound: c1ccc(-c2nn3c(Cn4nnc5ccccc54)nnc3s2)nc1
viability, %: 102

compound: Cc1cc(C(=O)NCc2ccc(S(N)(=O)=O)cc2)cs1
viability, %: 84.5

compound: Cc1cc(C(F)F)n2ncc(C(=O)NC3CCCCCC3)c2n1
viability, %: 89.5

compound: O=C1N=C(N2CCOCC2)CS1
viability, %: 108

// batch mode: one viability value per listed entry
1. CCCCNC(=O)CN(C1CCCCC1)S(C)(=O)=O
2. O=C(C1CCN(c2nnnn2-c2ccccc2)CC1)N1CCN(c2ccccc2)CC1
3. Cc1ccc(O)c(C(CC(=O)N2CCCC2)c2ccccc2)c1 (stereo not drawn)
4. Cn1c(=O)c2c(nc(CN3CCOCC3)n2CC(O)CO)n(C)c1=O (stereo not drawn)
5. Cn1c(Cl)nc2ccccc21

Resp:
1: 104; 2: 106; 3: 89; 4: 111; 5: 115

----------
experiment: RAM signaling pathway blockade in yeast – S. cerevisiae, Pdr1DBD-CYC8 efflux-inhibited sensitized strain, primary screen (AID 1298);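 note: 0% = DMSO untreated cells without growth and 100% = 10 µM 1-NA-PP1 full growth; higher means more yeast growth rescued from 5-FOA killing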; conditions: S. cerevisiae cbk1-as DSE1-URA3 strain, 5-FOA growth OD615, 2 d; at 50 µM; hits give high values
reported_property: RAM network inhibition (%)
Answers are plain numbers, in %.

compound: CCOC(=O)COc1cc2c(C(=O)OCC)c(C)oc2cc1Br
unit_string: %
RAM network inhibition: 12.8
//
compound: CCc1nnc(NC(=O)CCC(=O)O)s1
unit_string: %
RAM network inhibition: 2.03

// batch mode: one RAM network inhibition value per listed entry
1. CCCCCSc1nnc2c(n1)OC(C)N(C(C)=O)c1ccccc1-2 (stereo unspecified)
2. Fc1ccc(CSc2nnc(-c3cccnc3)n2Cc2ccco2)cc1
3. Cc1c(C(=O)NCC2COc3ccccc3O2)oc2ccc(S(=O)(=O)N3CCOCC3)cc12 (stereo unspecified)
4. CCCCNC(=O)NS(=O)(=O)c1ccc(NS(=O)(=O)c2ccccc2)cc1
5. CC(=O)Nc1nc2n(n1)C(c1ccccc1)C=C(c1ccccc1)N2 (stereo unspecified)
6. Cc1ccnc(SCCn2c(N3CCCCC3)nc3c2c(=O)[nH]c(=O)n3C)n1
7. COc1ccc(N2CCN(CCCNC(=O)CCCn3c(=O)[nH]c4ccsc4c3=O)CC2)cc1

Resp:
1: 2.22; 2: 2.25; 3: 6.17; 4: 4.35; 5: 1.19; 6: 2.14; 7: 9.35

// batch mode: one RAM network inhibition value per listed entry
1. CC1CC(C)CN(CCCNC(=O)Cn2ncc3c(=O)oc4ccccc4c32)C1 (stereo unspecified)
2. CN(c1nnc(N)s1)C1CCCCC1
3. CN1CCCc2cc3c(C(F)(F)F)cc(=O)oc3nc21
4. COc1ccc(-c2cc3ccccc3n2CC(O)CN2CCOCC2)cc1 (stereo unspecified)
5. CC(C)Sc1nc(N)c2c3c(sc2n1)CN(C)CC3

Resp:
1. 5
2. 3.49
3. 1.82
4. 2.87
5. 5.2

// batch mode: one RAM network inhibition value per listed entry
1. Cc1ccc(-c2nc(-c3ccccn3)no2)cc1
2. CCC(=O)N1CCc2cc(Br)cc(S(=O)(=O)CCC(=O)NCc3ccco3)c21
3. O=C(CCn1nnc2ccccc21)N1CCC(O)(c2cccc(F)c2)CC1
4. O=C(Nc1ccc(N2CCCC2)c(Cl)c1)c1ccc(Br)o1
5. COc1cccc(CNC(=O)CN(c2cc(C)cc(C)c2)S(=O)(=O)c2c(C)noc2C)c1
6. CC(C)CC(NC(=O)C1CCC(C)CC1)C(=O)Nc1cccnc1 (stereo unspecified)
7. COc1ccccc1N1CCN(C(=O)c2cc3cc(Br)ccc3oc2=O)CC1
8. CCCN(CCC)S(=O)(=O)c1cc(Br)cc2c1N(C(=O)CC)CC2

Resp:
1.82
4.36
1.86
3.68
7.12
0.05
1.96
4.71

// batch mode: one RAM network inhibition value per listed entry
1. COc1ccc(C2C(C(=O)c3ccco3)=C(O)C(=O)N2Cc2cccnc2)cc1OC (stereo unspecified)
2. Brc1ccc2ncnc(NCc3ccco3)c2c1
3. CC1CCC(NC(=O)CC2Oc3ccccc3NC2=O)CC1 (stereo unspecified)

Resp:
[0.66, 4.76, 5.77]

// batch mode: one RAM network inhibition value per listed entry
1. Cc1ccc(CNC(=O)c2oc3ccc(S(=O)(=O)N4CCC5(CC4)OCCO5)cc3c2C)cc1
2. CC(=O)N1CCc2cc(C(=O)CN3CCN(c4ccccc4F)CC3)ccc21
3. Cc1cc(NS(=O)(=O)c2ccc(NC(=O)c3cnc4scc(C)n4c3=O)cc2)nc(C)n1

Resp:
[2.87, 2.34, 4.17]

// batch mode: one RAM network inhibition value per listed entry
1. CC1CC(C)CN(C(=O)CSc2nnc(-c3ccc(Cl)s3)o2)C1 (stereo unspecified)
2. COc1ccccc1OCCC(=O)OCC(=O)NC(=O)NC(C)(C)C
3. CCC(C(=O)OC)n1cnc2c(nnn2-c2cccc(Cl)c2)c1=O (stereo unspecified)
4. NC1=C(c2ccc(F)cc2)C(=O)CS1
5. COC(=O)C1C(=O)C=C(N2CCOCC2)CC1(C)C (stereo unspecified)
6. COc1ccc(-c2noc(-c3cccc(OC)c3OC)n2)cc1OC
7. CC(C)N(CCc1ccncc1)C(=O)Nc1ccc(Cl)c(Cl)c1

Resp:
1. 2.52
2. 0.79
3. 4.91
4. 5.83
5. 1.92
6. 2.97
7. 3.94

// batch mode: one RAM network inhibition value per listed entry
1. NS(=O)(=O)c1ccc(CCNC(=O)C2CCCN(S(=O)(=O)c3cccnc3)C2)cc1 (stereo unspecified)
2. O=C(NCCCN1CCOCC1)NC12CC3CC(CC(C3)C1)C2
3. CCOC(=O)N1CCN(C(=O)CS(=O)(=O)c2cn(Cc3ccccc3C)c3ccccc23)CC1
4. O=C(NCc1nc2ccccc2[nH]1)c1cccs1
5. CCC(C)C1C(C#N)=C(N)Oc2n[nH]c(C)c21 (stereo unspecified)
6. CC(C)NS(=O)(=O)c1ccc(NC(=O)c2cccnc2)cc1

Resp:
1: 5.27; 2: 0.01; 3: 8.81; 4: 5.75; 5: 6.1; 6: 1.31
